procedure_summary: total protein half-life in vivo (active degradation + dilution); higher = more stable protein
conditions_used: wild type E. coli NCM3722; growth: N-lim chemostat; doubling time 6 h

polymer_sequence	total protein half-life in vivo
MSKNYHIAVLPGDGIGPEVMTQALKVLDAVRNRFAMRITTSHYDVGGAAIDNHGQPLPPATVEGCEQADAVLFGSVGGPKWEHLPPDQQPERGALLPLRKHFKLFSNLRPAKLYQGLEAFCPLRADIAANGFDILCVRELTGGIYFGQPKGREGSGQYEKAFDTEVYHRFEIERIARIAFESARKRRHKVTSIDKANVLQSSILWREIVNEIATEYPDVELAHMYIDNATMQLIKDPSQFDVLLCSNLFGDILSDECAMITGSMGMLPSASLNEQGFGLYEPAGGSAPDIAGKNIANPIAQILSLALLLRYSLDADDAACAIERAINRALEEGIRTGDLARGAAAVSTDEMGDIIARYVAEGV	2.54 h
MSKKIVLALGGNALGDDLAGQMKAVKITSQAIVDLIAQGHEVIVTHGNGPQVGMINQAFEAAAKTEAHSPMLPMSVCVALSQGYIGYDLQNALREELLSRGINKPVATLVTQVEVDANDPAFLNPTKPIGSFFTEQEAEQLTKQGYTLKEDAGRGYRRVVASPKPVDIIEKETVKALVDAGQVVITVGGGGIPVIREGNHLRGASAVIDKDWASARLAEMIDADMLIILTAVEKVAINFGKENEQWLDRLSLSDAERFIEEGHFAKGSMLPKVEAAASFARSRAGREALITVLSKAKEGIEGKTGTVICQ	2.66 h
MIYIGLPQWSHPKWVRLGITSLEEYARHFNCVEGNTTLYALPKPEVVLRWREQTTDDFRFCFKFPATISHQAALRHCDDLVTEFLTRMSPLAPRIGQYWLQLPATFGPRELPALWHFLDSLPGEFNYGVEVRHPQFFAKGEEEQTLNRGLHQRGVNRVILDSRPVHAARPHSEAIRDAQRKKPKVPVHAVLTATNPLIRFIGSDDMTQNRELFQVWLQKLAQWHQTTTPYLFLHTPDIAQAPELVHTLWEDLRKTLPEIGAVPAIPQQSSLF	3.16 h

###

procedure_summary: total protein half-life in vivo (active degradation + dilution); higher = more stable protein
conditions_used: E. coli NCM3722 delta-smpB; growth: N-lim chemostat; doubling time 6 h
Hi, to clarify the labels: criterion met covers total protein half-life in vivo from 5 h upward, criterion not met covers anything below 5 h.

polymer_sequence	label
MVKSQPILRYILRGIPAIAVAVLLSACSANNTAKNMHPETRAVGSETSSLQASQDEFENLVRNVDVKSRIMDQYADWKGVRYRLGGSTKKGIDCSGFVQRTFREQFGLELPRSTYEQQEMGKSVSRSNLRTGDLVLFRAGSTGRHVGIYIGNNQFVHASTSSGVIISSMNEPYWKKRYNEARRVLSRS [P0AFV4]	criterion not met
MAIILGIDPGSRVTGYGVIRQVGRQLSYLGSGCIRTKVDDLPSRLKLIYAGVTEIITQFQPDYFAIEQVFMAKNADSALKLGQARGVAIVAAVNQELPVFEYAARQVKQTVVGIGSAEKSQVQHMVRTLLKLPANPQADAADALAIAITHCHVSQNAMQMSESRLNLARGRLR [P0A814]	criterion not met
MYKTIIMPVDVFEMELSDKAVRHAEFLAQDDGVIHLLHVLPGSASLSLHRFAADVRRFEEHLQHEAQERLQTMVSHFTIDPSRIKQHVRFGSVRDEVNELAEELGADVVVIGSRNPSISTHLLGSNASSVIRHANLPVLVVR	criterion not met
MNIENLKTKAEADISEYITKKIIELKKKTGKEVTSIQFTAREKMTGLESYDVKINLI	criterion met
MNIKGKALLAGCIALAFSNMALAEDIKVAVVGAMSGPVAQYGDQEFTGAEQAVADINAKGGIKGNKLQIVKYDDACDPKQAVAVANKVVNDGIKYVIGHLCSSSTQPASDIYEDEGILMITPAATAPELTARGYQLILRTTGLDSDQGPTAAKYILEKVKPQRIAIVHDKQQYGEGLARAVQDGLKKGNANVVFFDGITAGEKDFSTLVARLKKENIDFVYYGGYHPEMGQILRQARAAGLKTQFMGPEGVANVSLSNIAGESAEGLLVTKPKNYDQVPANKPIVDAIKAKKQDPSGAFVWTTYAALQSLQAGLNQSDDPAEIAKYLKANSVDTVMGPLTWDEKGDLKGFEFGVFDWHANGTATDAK [P0AD96]	criterion met
